- Experiment description: soluble fraction after stress (log2 fold change); higher = more stays soluble; pooled small domains, quantitative proteomics;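 note: 20 min heating vs room temperature control held 20 min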
- Particulars: stress: 75 degC
Each entry gets f if its soluble fraction (log2) stays under -0.6, and t if its soluble fraction (log2) is -0.6 or above.

Some solved entries appear below for comparison.
{"Chain sequence": "HMEGVSSESVKEMLKSIIDGEDPHNPVSDQRITDILNSRGINISRRTVAKYRDELGIASSSRRKRY", "Discrete label": "t"}
{"Chain sequence": "HMEMKVIPFNQMTRDQFDQLDRFLGRLAAAQAMGSLRLTKAQQNYFLNQVKQLDLYRKRILN", "Discrete label": "f"}
{"Chain sequence": "HMANEGWDIYKLDIRNHKQPNGEYYSEKEIQSTINNTFGKGSFNVDWKKYEKDKEYREKTNYYYFQAKYFV", "Discrete label": "f"}
{"Chain sequence": "HMNEPITIALREAEEAANKILNEGVHSVELSPQNGYVRRLQHELIARYGLTSASRGSDPSRRVSVGAN", "Discrete label": "t"}
{"Chain sequence": "HMISFTDLEHIEKMIENVLYTKTPLNLPPTDAKIRKIEHQIARRYGLNSESFGDEPRRFVVVYPNEERE", "Discrete label": "f"}
{"Chain sequence": "HMASVRPVAPPDPKTHTRLTYRIRRGDTLERIGRRYRVSIAEIQAWNTLRDPGDILAGQRLVIWIPTS", "Discrete label": "f"}

State whether the measured soluble fraction (log2) reaches -0.6, counting equality as reaching it, for HMKIVFGHVKWFDIDKGFGFLVLEDEGGDVLLHANVLKNFGRTSVSEDTKIEFEFLETDKGRQVSTIYNIL
f

Now the sequence HMDFDPDVPSREDILQAFRDSKPPLTVNALISEFGLSRDASIVGLERRMGAMQRDGQLEQTPSGWQLSV
t

Now the sequence HMDTVSYSTLLRDIDAKEIKQLDLVPGRREVRVQYNDGRRVTVPVFANDNQILRAAESSGTPLTVV
t

Now the sequence HMDGEFINLKNRAGTEIEARILNYQNGQVKLERKDGVTFVVSISMFDAKSVIAINHKIAEIIDT
f

Now the sequence HMAASTPGTVTGSVVNVRPDPSTNNDRIGVIYQGTKVEILAQVGEWYNIQFGPVSGWVHKDYISTGA
t

Now the sequence HMSESGTFRAEAADAGRRLDVALAERLRLSRAAAQRLIAAGLVLVEGSPARKRQILHAGETVAWRAAPP
f

---

- Experiment description: soluble fraction after stress (log2 fold change); higher = more stays soluble; pooled small domains, quantitative proteomics
- Particulars: stress: 75 degC
Each entry below carries its reported soluble fraction (log2).
The response must contain the number and no unit.

Some sequences with known soluble fraction (log2) results, for comparison:
{"Chain sequence": "HMNPGNTESFPVYQKRLGEIIQTLAGKKGQDINSPEVKELVGEYDFLTKQMFQLPDATSMVMEIATAYRN", "soluble fraction (log2)": 0.0725}
{"Chain sequence": "HMNVRRSRTHEKVTTYQGYDIFINKEPNQRGMFTSAPMRGDNEYSNLRGEGKSKQDAVNMTKEKIDEIAA", "soluble fraction (log2)": 0.748}

Consider now this further sequence.
// query soluble fraction (log2) value for entry HMAEKEYYYATDALNLRQGPGMEHTVKGEVVLGERVALLGLEGKWAKIQNAQGTTGYVFSAYLAPS
-0.196

---

Each entry below carries its reported soluble fraction (log2).
- Experiment description: soluble fraction after stress (log2 fold change); higher = more stays soluble; pooled small domains, quantitative proteomics
- Particulars: stress: 75 degC

Some sequences with known soluble fraction (log2) results, for comparison:
{"Chain sequence": "HMRVSNADALIGRRGKANSDIRRGDYGWVAIDGDVWKSKLADDITEDIPMGAIVEVLSRDSIILTVKP", "soluble fraction (log2)": -0.926}
{"Chain sequence": "HMGPEAFPVPYVVDIELDRAIYVIEQSGFIVGQKLEANDNNVPRGFVISQNPPAGTKLGPESIVDLVVSS", "soluble fraction (log2)": -1.16}
{"Chain sequence": "HMVLMPIDALRGSSSSSEMRIAAVKFSPSKGWYFSLQERSDEGSSYYEQKVASDGSVSERVKVR", "soluble fraction (log2)": -0.58}
{"Chain sequence": "HMQYDESSQLGERFLNQALNALKADPDKVGDAQWEKLLKENSAKSRQEVLADIGLGKQLAIVIARELLS", "soluble fraction (log2)": -0.148}

Consider now this further sequence.
// query soluble fraction (log2) value for entry HMTFNEPSPKEIMDYSLSRGYKVDADAFIDFYRGKAKAYGKEGLWLDGRGRLVKDWRAKLRVVWFKDENKL
-1.36

---

- Experiment description: soluble fraction after stress (log2 fold change); higher = more stays soluble; pooled small domains, quantitative proteomics
- Particulars: stress: 75 degC
Each entry below carries its reported soluble fraction (log2).
The response must contain the number and no unit.

{"Chain sequence": "HMALPDWLDPEAWAAWKRHRKAIRKPLTEDAVALSIRELAKLRDEGYGPTSVIENAILKGWQGLYPPK", "soluble fraction (log2)": -0.364}
{"Chain sequence": "HMIKIEDYTNKDYNKVEASLEVKGLVVNIEYKAVDDKAKYKGKEDLIIDQSVKKDATLVKGDTIILYLPK", "soluble fraction (log2)": -1.21}

Consider now this further sequence.
// query soluble fraction (log2) value for entry HMQDLVAVPALTGLTENDAINKAKANNLIAVVSEYKTENSVEPGKVLEQDPESSTEVKKGTIIKLVVS
0.756

---

- Experiment description: soluble fraction after stress (log2 fold change); higher = more stays soluble; pooled small domains, quantitative proteomics
- Particulars: stress: 75 degC
Each entry gets not met if its soluble fraction (log2) stays under -0.2, and met if its soluble fraction (log2) is -0.2 or above.

{"Chain sequence": "HMDSRQIIAALQARYADETGITALKIKFNNVLGYFVDVPARYGDPLMKPPLSETFIHRQTLASNVRF", "Discrete label": "met"}
{"Chain sequence": "HMVEREYRLEVPPEAEGKRLDQFLVNQPVQLSRSQVQHLIQNGLVLVNAKTRRSSYRVHTGDIIEMQVPA", "Discrete label": "met"}
{"Chain sequence": "HMGDLEEAVKDFSEAIRLNDSWAEAYANRAVVYAEQGDAAQSDQDAEKARLLGVDQNRLNEMLNAVNS", "Discrete label": "met"}

Consider the additional sequence presented here.
State whether the measured soluble fraction (log2) reaches -0.2, counting equality as reaching it, for HMNVAETITLGKRLFNHALTILGKKQRNISRKQLKNFLNDLGLKDSKDLYESIGTGDKNPILMAQLLLG
not met

---

- Experiment description: soluble fraction after stress (log2 fold change); higher = more stays soluble; pooled small domains, quantitative proteomics
- Particulars: stress: 75 degC
Classification field. Basis: soluble fraction (log2). Definitions: low (below -0.4), intermediate (-0.4 to below 0.2), high (0.2 or more)

{"Chain sequence": "HMFDITKEVLKQSGLYNLYKNDESLEGINRIQNIEELLNGIKDFVENNEKSQASVSSFLQDVALATDQ", "Discrete label": "high"}

Consider the additional sequence presented here.
Bin? HMEAYMVPNVKNKTLNEAQQALSNQKLKGLVIDSSYVKGVPDGMVLDQNPAGGARVKEGRTIYLTVTTS
high

---

- Experiment description: soluble fraction after stress (log2 fold change); higher = more stays soluble; pooled small domains, quantitative proteomics
- Particulars: stress: 75 degC
Measure: soluble fraction (log2)
The response must contain the number and no unit.

{"Chain sequence": "HMGSTVRIVVPAADIPAYKDIQPSDLEYREVPKDEISEDAVTDPQEVINKYSTSPLYAGWPINKNIIET", "soluble fraction (log2)": -0.0405}
{"Chain sequence": "HMAVSDAAEEYGKAGTPLVILAGKEYGSGSSRDWAAKGPYLQGVRAVLAESYERIHRSNLVGMGIVPLTYK", "soluble fraction (log2)": 0.18}
{"Chain sequence": "HMKKNLELGLLPHEVKSILGEPDFIDTITDIDGIRYDMWSYTKLNVTKRLYFEDLFLVRMEE", "soluble fraction (log2)": -3.31}
{"Chain sequence": "HMFKMRVNGKEVIGMAITAKPQANPIDVADEIKKFVIDANTKLPSTMKLEVLYDATGIFRASISEVIS", "soluble fraction (log2)": -1.08}
{"Chain sequence": "HMGVPELHKGEIVQAVVEKVLGEGLLRVNLKGMTVEAATSLRLNPGQQLLLRSEGIENGRQVLR", "soluble fraction (log2)": 0.275}
{"Chain sequence": "HMIGGASVFKQFLPLADKMLLTLIHSEFEGDTYFPVFSEKEWLLQESSSLLSATGYQLSFQTYIR", "soluble fraction (log2)": 0.0107}
{"Chain sequence": "HMNSLGYSDFVVDVQNERVASVVIEGLIINGERRDGTKFRTVLPTIGDQRLMDDLINHNVKVLARE", "soluble fraction (log2)": -0.375}

Consider now this further sequence.
// query soluble fraction (log2) value for entry HMQGISGIERSLLDALAFEPAGLDALQARTGLDTPTLQALLMGLELQGHVARLPGSLFQRLVR
-0.9
